# Tested on: K. pneumoniae H521 (KPC, SHV, TEM)
# protocol: Antibacterial activity, MIC by agar dilution (CLSI)
# Assay type: cell-based
# measurementContext: Klebsiella pneumoniae, Table 2; K. pneumoniae H521 (KPC, SHV, TEM); read-out: MIC
One threshold, 2 µg/mL, splits the recorded MIC values: lower ones are label 1, equal or higher ones are label 0.

C[C@H](N)COc1cccc(CC(=O)NNC(=O)[C@@H]2CC[C@@H]3CN2C(=O)N3OS(=O)(=O)O)c1: label 1
CC(C)[C@H](N)C(=O)Oc1ccc(CC(=O)NNC(=O)[C@@H]2CC[C@@H]3CN2C(=O)N3OS(=O)(=O)O)cc1: label 0
CC(C)[C@H](N)COc1ccccc1CC(=O)NNC(=O)[C@@H]1CC[C@@H]2CN1C(=O)N2OS(=O)(=O)O: label 0
O=C(Cc1ccccc1OC[C@@H]1CCCN1)NNC(=O)[C@@H]1CC[C@@H]2CN1C(=O)N2OS(=O)(=O)O: label 0
O=C(Cc1ccc(OC(=O)[C@@H]2CCCN2)cc1)NNC(=O)[C@@H]1CC[C@@H]2CN1C(=O)N2OS(=O)(=O)O: label 1

Confirm or reject: MIC of NCCOc1cccc(CC(=O)NNC(=O)[C@@H]2CC[C@@H]3CN2C(=O)N3OS(=O)(=O)O)c1 lies strictly below 2 µg/mL
label 1

Another compound to check: Nc1ccc(CC(=O)NNC(=O)[C@@H]2CC[C@@H]3CN2C(=O)N3OS(=O)(=O)O)c(F)c1
label 0

Another compound to check: NCCOc1ccccc1CC(=O)NNC(=O)[C@@H]1CC[C@@H]2CN1C(=O)N2OS(=O)(=O)O
label 1

Another compound to check: C[C@@H](N)COc1cccc(CC(=O)NNC(=O)[C@@H]2CC[C@@H]3CN2C(=O)N3OS(=O)(=O)O)c1
label 1

---

# testedSystem: Class D beta-lactamase, A. baumannii NCTC 13301 (OXA 23) (Acinetobacter baumannii, UniProt Q9L4P2)
# Construct: preincubated mixture of crude enzyme and the agents; endogenous in cells; host or cells: A. baumannii NCTC 13301
# Sequence (Q9L4P2 18-273): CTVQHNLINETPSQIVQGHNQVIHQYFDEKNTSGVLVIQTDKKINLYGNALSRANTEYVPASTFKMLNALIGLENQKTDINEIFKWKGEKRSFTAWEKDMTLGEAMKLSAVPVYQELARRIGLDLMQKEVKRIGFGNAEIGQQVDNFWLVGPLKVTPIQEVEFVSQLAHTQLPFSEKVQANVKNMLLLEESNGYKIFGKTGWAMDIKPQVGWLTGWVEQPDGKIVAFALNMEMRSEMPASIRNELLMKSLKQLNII
# protocol: Beta-lactamase enzyme inhibition (nitrocefin, crude enzyme)
# Type: biochemical
# measurementContext: Class D A. baumannii NCTC 13301 (OXA 23); read-out: Beta-lactamase enzyme inhibition IC50
reportedProperty: IC50

C[C@H](N)COc1ccc(CC(=O)NNC(=O)[C@@H]2CC[C@@H]3CN2C(=O)N3OS(=O)(=O)O)cc1 [Example 43]: 522 nM

Provide IC50 values for the following items, in order.
1. O=C(Cc1ccc(OC[C@@H]2CCCN2)cc1)NNC(=O)[C@@H]1CC[C@@H]2CN1C(=O)N2OS(=O)(=O)O [Example 61]
2. O=C(Cc1ccc(O[C@H]2CCNC2)cc1)NNC(=O)[C@@H]1CC[C@@H]2CN1C(=O)N2OS(=O)(=O)O [Example 64]
3. CCOc1ccccc1CC(=O)NNC(=O)[C@@H]1CC[C@@H]2CN1C(=O)N2OS(=O)(=O)O [Example 15]

690 nM
432 nM
210 nM

Provide IC50 values for the following items, in order.
1. CC(C)[C@H](N)C(=O)Oc1ccc(CC(=O)NNC(=O)[C@@H]2CC[C@@H]3CN2C(=O)N3OS(=O)(=O)O)cc1 [Example 24]
2. CC(C)(C)OC(=O)CC(=O)Oc1ccc(CC(=O)NNC(=O)[C@@H]2CC[C@@H]3CN2C(=O)N3OS(=O)(=O)O)cc1 [Example 26]
3. C[C@@H](N)COc1cccc(CC(=O)NNC(=O)[C@@H]2CC[C@@H]3CN2C(=O)N3OS(=O)(=O)O)c1 [Example 42]

151 nM
370 nM
1230 nM
